Hello, the source for this data is BindingDB's records for doi:10.1074/jbc.M606784200, in case you need it.

Target: Aldo-keto reductase family 1 member C3 (Homo sapiens, UniProt P42330)
Sequence (P42330 whole entry): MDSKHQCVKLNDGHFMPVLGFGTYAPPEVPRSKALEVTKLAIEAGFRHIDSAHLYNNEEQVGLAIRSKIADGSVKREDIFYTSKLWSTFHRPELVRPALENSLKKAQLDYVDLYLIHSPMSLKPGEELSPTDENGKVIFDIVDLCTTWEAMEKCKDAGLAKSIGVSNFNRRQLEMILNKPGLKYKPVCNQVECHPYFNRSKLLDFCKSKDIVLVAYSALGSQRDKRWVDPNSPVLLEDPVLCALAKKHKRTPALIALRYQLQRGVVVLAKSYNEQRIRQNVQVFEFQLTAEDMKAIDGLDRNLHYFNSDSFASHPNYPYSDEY
ENDPOINT LABEL: pKi
As a rule, pKi stands for the negative log10 of the concentration, concentration in M.

// compound CC1(C)CC[C@@]2(CCC3C4CCc5cc(C(N)=O)ccc5C4CC[C@@]32C)OC1=O (stereo partly specified) , assay Aldo-keto reductase family 1 member C3 (Homo sapiens, UniProt P42330), pKi value: 8.16
